Kindly supply the reported total FIC50 values for the records listed here.
System: Mycobacterium tuberculosis Erdman (autoluminescent)
Assay Explanation: total FIC50 (Loewe) at 50% inhibition, three-drug combination (log2); higher = more antagonistic
Cond: in vitro model: cholesterol 0.05 mM; time point: constant (~7 days, model-specific)
Write no unit; give the number alone.

Qu. Dear colleague, please send me the reported total FIC50 for NNC(=O)c1ccncc1 [isoniazid] + CO[C@H]1/C=C/O[C@@]2(C)Oc3c(C)c(O)c4c(O)c(c(/C=N/N5CCN(C6CCCC6)CC5)c(O)c4c3C2=O)NC(=O)/C(C)=C\C=C\[C@H](C)[C@H](O)[C@@H](C)[C@@H](O)[C@@H](C)[C@H](OC(C)=O)[C@@H]1C [rifapentine] + CO[C@H]1/C=C/O[C@@]2(C)Oc3c(C)c(O)c4c(O)c(c(/C=N/N5CCN(C)CC5)c(O)c4c3C2=O)NC(=O)/C(C)=C\C=C\[C@H](C)[C@H](O)[C@@H](C)[C@@H](O)[C@@H](C)[C@H](OC(C)=O)[C@@H]1C [rifampicin] when you can.
Ans. 0.806

Qu. State, in one line, measured total FIC50 of COc1nc2ccc(Br)cc2cc1[C@@H](c1ccccc1)[C@@](O)(CCN(C)C)c1cccc2ccccc12 [bedaquiline] + CC[C@@H](CO)NCCN[C@@H](CC)CO [ethambutol] + CO[C@H]1/C=C/O[C@@]2(C)Oc3c(C)c(O)c4c(O)c(c(/C=N/N5CCN(C6CCCC6)CC5)c(O)c4c3C2=O)NC(=O)/C(C)=C\C=C\[C@H](C)[C@H](O)[C@@H](C)[C@@H](O)[C@@H](C)[C@H](OC(C)=O)[C@@H]1C [rifapentine]
Ans. 0.896

Qu. Read the entry CC(C)/N=c1\cc2n(-c3ccc(Cl)cc3)c3ccccc3nc-2cc1Nc1ccc(Cl)cc1 [clofazimine] + NNC(=O)c1ccncc1 [isoniazid] + O=[N+]([O-])c1cn2c(n1)OC[C@@H](OCc1ccc(OC(F)(F)F)cc1)C2 [pretomanid] and write its reported total FIC50.
Ans. 0.824

Qu. # return recorded total FIC50 for entry COc1nc2ccc(Br)cc2cc1[C@@H](c1ccccc1)[C@@](O)(CCN(C)C)c1cccc2ccccc12 [bedaquiline] + CC[C@@H](CO)NCCN[C@@H](CC)CO [ethambutol] + CO[C@H]1/C=C/O[C@@]2(C)Oc3c(C)c(O)c4c(O)c(c(/C=N/N5CCN(C)CC5)c(O)c4c3C2=O)NC(=O)/C(C)=C\C=C\[C@H](C)[C@H](O)[C@@H](C)[C@@H](O)[C@@H](C)[C@H](OC(C)=O)[C@@H]1C [rifampicin]
Ans. 0.99

Qu. Give total FIC50 for the following molecule: CC(=O)NC[C@H]1CN(c2ccc(N3CCOCC3)c(F)c2)C(=O)O1 [linezolid] + COc1c(N2C[C@@H]3CCCN[C@@H]3C2)c(F)cc2c(=O)c(C(=O)O)cn(C3CC3)c12 [moxifloxacin] + O=[N+]([O-])c1cn2c(n1)OC[C@@H](OCc1ccc(OC(F)(F)F)cc1)C2 [pretomanid]
Ans. 0.0017

Qu. Provide only the value of recorded total FIC50 for COc1nc2ccc(Br)cc2cc1[C@@H](c1ccccc1)[C@@](O)(CCN(C)C)c1cccc2ccccc12 [bedaquiline] + CC(C)/N=c1\cc2n(-c3ccc(Cl)cc3)c3ccccc3nc-2cc1Nc1ccc(Cl)cc1 [clofazimine] + CC(=O)NC[C@H]1CN(c2ccc(N3CCOCC3)c(F)c2)C(=O)O1 [linezolid]
Ans. -0.461
